Data origin, for the record: ChEMBL document CHEMBL3988442

test.system: Tyrosyl-tRNA synthetase, putative (Trypanosoma cruzi (strain CL Brener))
Sequence (whole entry): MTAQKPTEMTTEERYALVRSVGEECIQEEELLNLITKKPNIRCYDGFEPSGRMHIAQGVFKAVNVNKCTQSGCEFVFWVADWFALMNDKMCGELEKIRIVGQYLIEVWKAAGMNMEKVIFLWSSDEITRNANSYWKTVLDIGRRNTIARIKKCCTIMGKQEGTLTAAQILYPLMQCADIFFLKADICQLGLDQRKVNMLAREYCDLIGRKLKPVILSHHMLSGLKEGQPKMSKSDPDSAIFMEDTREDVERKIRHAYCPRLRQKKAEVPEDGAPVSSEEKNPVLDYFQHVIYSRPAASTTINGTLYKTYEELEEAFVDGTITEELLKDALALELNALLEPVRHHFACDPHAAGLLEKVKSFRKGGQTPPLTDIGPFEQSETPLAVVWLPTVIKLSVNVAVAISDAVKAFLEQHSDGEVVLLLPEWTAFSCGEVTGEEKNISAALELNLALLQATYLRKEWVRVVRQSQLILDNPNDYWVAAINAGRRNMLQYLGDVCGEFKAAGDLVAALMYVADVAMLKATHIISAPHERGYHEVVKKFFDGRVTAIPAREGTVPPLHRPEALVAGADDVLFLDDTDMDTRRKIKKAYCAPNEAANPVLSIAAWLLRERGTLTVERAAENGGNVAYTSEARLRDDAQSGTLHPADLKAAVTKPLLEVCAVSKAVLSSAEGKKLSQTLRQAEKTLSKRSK
procedure.details: Trypanosoma cruzi tyrosyl tRNA synthetase (TcYRS) _High Tyrosine SOP
Assay type: functional
Set-up: scale not given: in the data most compounds retested in dose-response had high values
assay.context: 30 µM
result.type: Percent Effect (%)
Only the number, expressed in %, is required.

Look up Percent Effect for this compound: CN1CCN(CC2CC2)C(=O)c2cnc(N3CCCC3)nc21
-4.74

// next record Cc1[nH]nc(CCC(=O)N2CCCC(OCc3cccnc3)C2)c1C (stereo unspecified)
6.92

// next record Cc1c(CN2CCCC(c3[nH]ncc3S(C)(=O)=O)C2)cnn1C (stereo unspecified)
3.17

// next record Cn1cc(NC(=O)N2CCC(c3ccccc3)CC2)ccc1=O
0.478

// next record CO[C@@H]1CCN(C(=O)c2ccccn2)[C@H]1Cc1ccccc1
8.7

// next record CN(C)c1cc(C(=O)N2CCCN(Cc3cscn3)CC2)ccn1
6.86

// next record COCCc1noc(CN2CCOC(Cn3nc(C)cc3C)C2)n1 (stereo unspecified)
4.9

// next record COC(=O)NCc1cc2n(n1)CCCN(C(C)=O)C2
4.79

// next record Cc1ccc([C@@H]2CN(C(=O)c3csc(C)n3)C[C@H]2NC(=O)C2CC2)cc1
3.72

// next record Cc1cnn(CC2CCCN2C(=O)c2ccc(C(N)=O)cn2)c1 (stereo unspecified)
0.478

// next record COC(=O)c1cccn1C1CCN(CC(=O)NC2CCCCC2)CC1
9.8
